# target or system: Phosphatidylinositol 4,5-bisphosphate 3-kinase catalytic subunit delta isoform (Homo sapiens)
# Sequence (O00329 whole entry, canonical isoform): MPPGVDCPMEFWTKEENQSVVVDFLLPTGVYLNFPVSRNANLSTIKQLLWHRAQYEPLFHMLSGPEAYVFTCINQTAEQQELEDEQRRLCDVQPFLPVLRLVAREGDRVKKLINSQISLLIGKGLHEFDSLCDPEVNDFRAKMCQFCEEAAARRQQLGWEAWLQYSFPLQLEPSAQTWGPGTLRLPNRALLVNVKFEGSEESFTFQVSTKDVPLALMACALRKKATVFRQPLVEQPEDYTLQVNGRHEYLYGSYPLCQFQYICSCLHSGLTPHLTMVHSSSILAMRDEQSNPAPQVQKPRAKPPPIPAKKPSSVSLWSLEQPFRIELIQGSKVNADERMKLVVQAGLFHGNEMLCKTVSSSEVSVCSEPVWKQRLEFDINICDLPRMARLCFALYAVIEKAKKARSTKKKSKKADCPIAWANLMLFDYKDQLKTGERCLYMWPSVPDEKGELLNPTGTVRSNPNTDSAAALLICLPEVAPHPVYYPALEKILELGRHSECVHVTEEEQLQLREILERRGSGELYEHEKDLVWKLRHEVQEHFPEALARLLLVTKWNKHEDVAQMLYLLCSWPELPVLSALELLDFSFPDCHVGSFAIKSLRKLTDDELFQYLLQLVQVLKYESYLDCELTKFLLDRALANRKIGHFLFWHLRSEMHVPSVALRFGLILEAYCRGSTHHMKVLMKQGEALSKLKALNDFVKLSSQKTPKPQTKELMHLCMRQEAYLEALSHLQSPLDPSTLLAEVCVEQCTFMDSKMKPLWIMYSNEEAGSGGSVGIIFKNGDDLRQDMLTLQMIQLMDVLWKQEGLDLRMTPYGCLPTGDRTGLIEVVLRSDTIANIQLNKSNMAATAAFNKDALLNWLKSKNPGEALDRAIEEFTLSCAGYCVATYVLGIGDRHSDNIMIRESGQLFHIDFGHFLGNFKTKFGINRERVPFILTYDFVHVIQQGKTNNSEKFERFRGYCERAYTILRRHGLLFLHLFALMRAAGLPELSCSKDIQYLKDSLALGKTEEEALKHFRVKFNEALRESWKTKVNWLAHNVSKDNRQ
# method: Inhibition of PI3Kdelta in human whole blood assessed as reduction in cytostim-stimulated IFNgamma production preincubated for 1 hr followed by cytostim stimulation and measured after 20 hrs by electrochemiluminescence assay
readout type: pIC50
Give bare numbers, as −log10 of the molar value.

Some entries whose results are on file:
COc1ncc(C2=CCOCC2)cc1S(=O)(=O)Nc1cncc(-c2ccc(CN3CCNCC3)cc2)c1: 7.90
COc1ncc(N2CCOCC2)cc1S(=O)(=O)Nc1cncc(-c2ccc(CN3CCCC3)cc2F)c1: 7.70
COc1ncc(N2CCOCC2)cc1S(=O)(=O)Nc1cncc(-c2ccc(CN3CCN(C(C)C)CC3)cc2)c1: 7.70

# batch size: 3; output pIC50 per entry
1. COc1ncc(N2CCOCC2)cc1S(=O)(=O)Nc1ccnc(-c2ccc(CN3CCC(C(C)(C)O)CC3)cc2F)c1
2. COc1ncc(C2=CCOCC2)cc1S(=O)(=O)Nc1cncc(-c2ccc(CN(C)C)cc2)c1
3. COc1ncc(N2CCOCC2)cc1S(=O)(=O)Nc1ccnc(-c2ccc(CN3CCN(C(C)C)CC3)c(F)c2)c1

Out:
1: 8.00; 2: 7.10; 3: 8.50

---

# method: AUC in Wistar Han rat at 1 mg/kg, po administered via gavage or 1 mg/kg, iv administered as infusion for 1 hr by RP LC-MS/MS analysis
# Type: ADME, organism-based
# Parameters: dose 1 mg/kg
# condition set: in vivo
readout type: AUC (ng·h/mL)
Numbers only, in ng·h/mL.

In: State the recorded AUC for this entry: COc1ncc(N2CCOCC2)cc1S(=O)(=O)Nc1ccnc(-c2ccc(CN3CCN(C(C)C)CC3)cc2F)c1
Out: 2020

---

Exercise: for every item that follows, state its recorded pIC50.
# target or system: PI3-kinase p110-delta/p85-alpha (Homo sapiens)
# Sequence (P27986 whole entry, one chain of several): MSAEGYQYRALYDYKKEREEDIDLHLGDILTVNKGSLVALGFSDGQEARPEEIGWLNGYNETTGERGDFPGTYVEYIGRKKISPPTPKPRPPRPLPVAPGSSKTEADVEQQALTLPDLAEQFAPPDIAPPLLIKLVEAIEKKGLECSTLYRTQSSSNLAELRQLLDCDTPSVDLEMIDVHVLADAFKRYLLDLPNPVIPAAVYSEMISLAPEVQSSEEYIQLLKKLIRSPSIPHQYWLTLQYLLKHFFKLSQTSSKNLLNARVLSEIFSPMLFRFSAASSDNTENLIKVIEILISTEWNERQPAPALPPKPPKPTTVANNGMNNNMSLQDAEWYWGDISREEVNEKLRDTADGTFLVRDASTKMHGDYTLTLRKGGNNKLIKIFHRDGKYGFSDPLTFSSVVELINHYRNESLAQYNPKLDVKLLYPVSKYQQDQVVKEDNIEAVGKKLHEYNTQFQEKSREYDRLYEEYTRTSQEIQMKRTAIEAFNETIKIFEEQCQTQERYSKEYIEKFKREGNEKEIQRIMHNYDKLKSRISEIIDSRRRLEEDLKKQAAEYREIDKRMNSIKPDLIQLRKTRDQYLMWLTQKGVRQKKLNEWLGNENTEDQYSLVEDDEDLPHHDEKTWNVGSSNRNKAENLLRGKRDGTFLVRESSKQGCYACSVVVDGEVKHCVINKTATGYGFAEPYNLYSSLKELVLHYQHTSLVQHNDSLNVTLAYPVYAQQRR
# method: Inhibition of recombinant human N-terminal His6-tagged full length P110delta/full length untagged human p85alpha expressed in baculovirus infected Sf21 insect cells using PIP2 as substrate preincubated for 15 mins followed by substrate addition and measured after 60 mins by HTRF assay
Answers are plain numbers, as −log10 of the molar value.

COc1ncc(C2=CCOCC2)cc1S(=O)(=O)Nc1cncc(-c2ccc(CN3CCCC3)cc2)c1: 8.30

# batch size: 2; output pIC50 per entry
1. COc1ncc(C2=CCOCC2)cc1S(=O)(=O)Nc1cncc(-c2ccc(CN3CCNCC3)cc2)c1
2. COc1ncc(N2CCOCC2)cc1S(=O)(=O)Nc1cncc(-c2ccc(CN3CCCC3)cc2F)c1

Out:
[8.50, 8.50]

# batch size: 3; output pIC50 per entry
1. COc1ncc(N2CCOCC2)cc1S(=O)(=O)Nc1ccnc(-c2ccc(CN3CCN(C(C)C)CC3)c(F)c2F)c1
2. COc1ncc(C2=CCOCC2)cc1S(=O)(=O)Nc1cncc(-c2ccc(CN(C)C)cc2)c1
3. COc1ncc(C2=CCOCC2)cc1S(=O)(=O)Nc1cncc(-c2cccc(CN3CCCCC3)c2)c1

Out:
1: 8.80; 2: 8.10; 3: 8.30

---

Exercise: for every item that follows, state its recorded CLint scaled at 0.5 µM.
# method: Intrinsic clearance in Wistar Han rat liver microsomes at 0.5 uM measured up to 45 mins in presence of NADPH by LC-MS/MS analysis
# Format: ADME, Microsome
# condition set: read-out: CLH

Some entries whose results are on file:
COc1ncc(C2=CCOCC2)cc1S(=O)(=O)Nc1cncc(-c2cccc(CN3CCCCC3)c2)c1: 3.98 mL/min/kg
COc1ncc(N2CCOCC2)cc1S(=O)(=O)Nc1ccnc(-c2ccc(CN3CCN(C(C)C)CC3)c(F)c2)c1: < 0.46 mL/min/kg
COc1ncc(N2CCOCC2)cc1S(=O)(=O)Nc1ccnc(-c2ccc(CN3CCN(C(C)C)CC3)cc2)c1: < 0.46 mL/min/kg
COc1ncc(C2=CCOCC2)cc1S(=O)(=O)Nc1cncc(-c2ccc(CN3CCNCC3)cc2)c1: 3.18 mL/min/kg
COc1ncc(N2CCOCC2)cc1S(=O)(=O)Nc1ccnc(-c2ccc(CN3CCN(C(C)(C)C)CC3)cc2)c1: < 0.46 mL/min/kg
COc1ncc(N2CCOCC2)cc1S(=O)(=O)Nc1ccnc(-c2ccc(CN3CCN(C(C)C)CC3)c(F)c2F)c1: < 0.46 mL/min/kg
COc1ncc(N2CCOCC2)cc1S(=O)(=O)Nc1ccnc(-c2ccc(CN3CCC(C(C)(C)O)CC3)cc2F)c1: < 0.46 mL/min/kg
COc1ncc(C2=CCOCC2)cc1S(=O)(=O)Nc1cncc(-c2ccc(CN3CCN(C)CC3)cc2)c1: 0.96 mL/min/kg

# batch size: 4; output CLint scaled at 0.5 µM per entry
1. COc1ncc(C2=CCOCC2)cc1S(=O)(=O)Nc1cncc(C#CCN2CCN(C(C)C)CC2)c1
2. COc1ncc(N2CCOCC2)cc1S(=O)(=O)Nc1cncc(-c2ccc(CN3CCN(C(C)C)CC3)cc2F)c1
3. COc1ncc(N2CCOCC2)cc1S(=O)(=O)Nc1cncc(-c2ccc(CN3CCCC3)c(F)c2)c1
4. COc1ncc(N2CCOCC2)cc1S(=O)(=O)Nc1ccnc(-c2ccc(CN3CCN(C(C)C)CC3)cc2F)c1

Out:
1. 0.54 mL/min/kg
2. < 0.46 mL/min/kg
3. < 0.46 mL/min/kg
4. < 0.46 mL/min/kg

# batch size: 5; output CLint scaled at 0.5 µM per entry
1. COc1ncc(C2=CCOCC2)cc1S(=O)(=O)Nc1cncc(-c2ccc(CN(C)C)cc2)c1
2. COc1ncc(C2=CCOCC2)cc1S(=O)(=O)Nc1cncc(-c2ccc(CN3CCN(C(C)C)CC3)nc2)c1
3. COc1ncc(N2CCOCC2)cc1S(=O)(=O)Nc1ccnc(-c2ccc(CN3CCN(C(C)(C)C)CC3)cc2F)c1
4. COc1ncc(C2=CCOCC2)cc1S(=O)(=O)Nc1cncc(-c2ccc(CN3CCN(C(C)C)CC3)cc2)c1
5. COc1ncc(N2CCOCC2)cc1S(=O)(=O)Nc1cncc(-c2ccc(CN3CCN(C(C)C)CC3)cc2)c1

Out:
0.66 mL/min/kg
< 0.46 mL/min/kg
< 0.37 mL/min/kg
0.61 mL/min/kg
< 0.46 mL/min/kg

---

# target or system: PI3-kinase p110-delta/p85-alpha (Homo sapiens)
# method: Inhibition of recombinant human N-terminal His6-tagged full length P110delta/full length untagged human p85alpha expressed in baculovirus infected Sf21 insect cells using PIP2 as substrate preincubated for 15 mins followed by substrate addition and measured after 60 mins by HTRF assay
pIC50: −log10 of the molar value.
Returns one of label 1 or label 0; label 1 when pIC50 is >= 9.

In: // inclusive: pIC50 at least 9? input: COc1ncc(C2=CCOCC2)cc1S(=O)(=O)Nc1cncc(C2CC2CN(C)C)c1 (centres undefined)
Out: label 0

In: Okay, and COc1ncc(C2=CCOCC2)cc1S(=O)(=O)Nc1cncc(-c2ccc(CN3C[C@@H](C)O[C@@H](C)C3)cc2)c1 ?
Out: label 1

In: Okay, and COc1ncc(C2=CCOCC2)cc1S(=O)(=O)Nc1cncc(C2=CCN(C)CC2)c1 ?
Out: label 0

In: Okay, and COc1ncc(C2=CCOCC2)cc1S(=O)(=O)Nc1cncc(-c2ccc(CN3CCN(C)CC3)cc2)c1 ?
Out: label 0

In: Okay, and COc1ncc(C2=CCOCC2)cc1S(=O)(=O)Nc1ccccc1 ?
Out: label 0

---

# method: Intrinsic clearance in Wistar Han rat liver microsomes at 0.5 uM measured up to 45 mins in presence of NADPH by LC-MS/MS analysis
# Type: ADME, Microsome
# condition set: read-out: CLH
readout type: CLint scaled at 0.5 µM

Some entries whose results are on file:
COc1ncc(N2CCOCC2)cc1S(=O)(=O)Nc1cncc(C#CCN2CCN(C(C)C)CC2)c1: < 0.46 mL/min/kg
COc1ncc(N2CCOCC2)cc1S(=O)(=O)Nc1cncc(-c2ccc(CN3CCCC3)cc2F)c1: < 0.46 mL/min/kg

In: State the recorded CLint scaled at 0.5 µM for this entry: COc1ncc(N2CCOCC2)cc1S(=O)(=O)Nc1cncc(-c2ccc(CN3CCCC3)cc2)c1
Out: < 0.46 mL/min/kg

---

# method: Lipophilicity, log D of compound by chromatographic method
# Format: physicochemical
Mark TRUE only for chromatographic logD values smaller than 2; exact matches and larger values are FALSE.

COc1ncc(C2=CCOCC2)cc1S(=O)(=O)Nc1cncc(-c2ccc(CN3CCNCC3)cc2)c1: FALSE
COc1ncc(C2=CCOCC2)cc1S(=O)(=O)Nc1cncc(-c2cccc(CN3CCCC3)c2)c1: FALSE
COc1ncc(N2CCOCC2)cc1S(=O)(=O)Nc1ccnc(-c2ccc(CN3CCN(C(C)C)CC3)cc2)c1: TRUE
COc1ncc(C2=CCOCC2)cc1S(=O)(=O)Nc1cncc(C#CCN2CCN(C(C)C)CC2)c1: TRUE

Next, consider the following molecule.
In: Lab note: confirm whether the reported chromatographic logD for this molecule is below 2, equality not counting. molecule: COc1ncc(N2CCOCC2)cc1S(=O)(=O)Nc1cncc(-c2ccc(CN3CCN(C(C)C)CC3)cc2F)c1
Out: FALSE

Attribution: ChEMBL document CHEMBL4825755
